- Target desc: Mitogen-activated protein kinase kinase kinase kinase 1 (Homo sapiens, UniProt Q92918)
- Sequence (Q92918 whole entry): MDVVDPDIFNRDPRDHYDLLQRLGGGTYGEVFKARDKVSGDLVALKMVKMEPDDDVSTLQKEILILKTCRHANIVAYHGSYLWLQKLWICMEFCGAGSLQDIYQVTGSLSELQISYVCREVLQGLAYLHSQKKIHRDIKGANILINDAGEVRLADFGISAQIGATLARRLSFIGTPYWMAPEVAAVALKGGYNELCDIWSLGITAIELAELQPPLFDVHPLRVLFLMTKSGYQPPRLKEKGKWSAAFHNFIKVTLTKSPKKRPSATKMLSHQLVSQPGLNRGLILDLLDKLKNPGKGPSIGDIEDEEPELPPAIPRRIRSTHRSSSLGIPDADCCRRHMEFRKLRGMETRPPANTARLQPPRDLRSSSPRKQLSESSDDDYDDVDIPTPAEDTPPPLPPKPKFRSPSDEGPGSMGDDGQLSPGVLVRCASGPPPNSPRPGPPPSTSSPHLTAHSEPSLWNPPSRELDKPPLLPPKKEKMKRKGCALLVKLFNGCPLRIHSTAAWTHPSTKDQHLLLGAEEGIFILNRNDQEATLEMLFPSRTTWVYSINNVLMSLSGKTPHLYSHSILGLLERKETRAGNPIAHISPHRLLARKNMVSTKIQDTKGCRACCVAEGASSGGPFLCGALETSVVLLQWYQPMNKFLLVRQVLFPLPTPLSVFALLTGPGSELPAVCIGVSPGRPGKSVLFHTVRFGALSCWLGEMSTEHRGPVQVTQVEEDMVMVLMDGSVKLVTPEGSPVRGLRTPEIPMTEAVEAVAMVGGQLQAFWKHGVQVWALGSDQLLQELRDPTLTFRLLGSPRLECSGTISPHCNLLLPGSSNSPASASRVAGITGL
- Assay comment: HPK1-SLP76 TR-FRET ASSAY
pIC50: −log10 of the molar value.
Endpoint label: pIC50

Answered examples (4):
Molecule	pIC50
Cc1c(-c2c(F)c(N)c3cnc(Nc4ccc(CS(C)(=O)=O)cc4F)nc3c2Cl)cnc2c1NCCO2 [WO2022098806, Compound 2-135]	9.89
Cc1c(-c2cc3nc(Nc4ccc(CS(=O)(=O)CC(F)(F)F)cc4)ncc3c(N)c2F)cnc2c1NCCO2 [WO2022098806, Compound 2-149]	9.72
CC(=O)N1CCCc2cc(Nc3ncc4c(N)c(F)c(-c5cnc6c(c5C)NCCO6)cc4n3)ccc21 [WO2022098806, Compound 2-7]	9.96
Cc1c(-c2c(F)c(N)c3cnc(Nc4ccc5c(c4)CN(C)CC54CC4)nc3c2C#N)cnc2c1NCCO2 [WO2022098806, Compound 2-109]	10.30

A. Cc1c(-c2c(F)c(N)c3cnc(Nc4ccc(S(C)(=O)=O)cc4)nc3c2Cl)cnc2c1NCCO2 [WO2022098806, Compound 2-103]
B. CCS(=O)(=O)Cc1ccc(Nc2ncc3ccc(-c4cnc5c(c4C)NCCO5)cc3n2)cc1 [WO2022098806, Compound 1-134]
**Query** Which is greater in pIC50, the first item A or the second item B ? Lab log: write the label of the selected item as the result.
**Result** B
(B: 10.40, A: 10.05)
